Here we gather IC50 data for IRAK4 (Homo sapiens (Human), UniProt Q9NWZ3) reported by several publications.

>  <Compound structure>
O=C(Nc1nc(CCCC(=O)N2CCCCC2)cn1-c1ccccc1)c1cccc(-c2cn[nH]c2F)c1

>  <Tested on>
IRAK4 (Homo sapiens (Human), UniProt Q9NWZ3)

>  <Reported result>
< 50 nM

$$$$

Just so you know, measured IC50 for `Cc1cc(Nc2nc(N[C@@H]3CC[C@H](O)[C@@H](O)C3)c3sccc3n2)sn1` came out at ≤ 100 nM

Just so you know, measured IC50 for `Cn1cc(Nc2nc(N[C@H]3CC[C@H](O)CC3)c3sccc3n2)cn1` came out at ≤ 100 nM

Just so you know, measured IC50 for `NC(=O)C[C@H]1CCc2sc3ncnc(O[C@H]4CC[C@H](N5CCN(Cc6ccccc6)CC5)CC4)c3c21` came out at < 5000 nM

---

Here we gather IC50 data for IRAK4 (Homo sapiens (Human), UniProt Q9NWZ3) reported by several publications.

>  <Compound>
Cc1cc(Nc2nc(OCC3CCOC3)c3c(ccn3-c3cnn(C)c3)n2)sn1 (stereo not drawn)

>  <Tested on>
IRAK4 (Homo sapiens (Human), UniProt Q9NWZ3)

>  <IC50>
100 to 1000 nM

$$$$
>  <Compound>
CC1(CC(N)c2cccc(-c3ccc4cnn(-c5cccc(CO)n5)c4c3)n2)COC1 (stereo not drawn)

>  <Tested on>
IRAK4 (Homo sapiens (Human), UniProt Q9NWZ3)

>  <IC50>
< 100 nM

$$$$
>  <Compound>
c1[nH]c2ncc3nc(C4CCNCC4)cn3c2c1C1CCOCC1

>  <Tested on>
IRAK4 (Homo sapiens (Human), UniProt Q9NWZ3)

>  <IC50>
< 100 nM

$$$$
>  <Compound>
Cn1cc(-c2cccc(-c3ncc(-c4ccn(C)n4)c(NCC4CCNC4)n3)c2)cn1 (stereo not drawn)

>  <Tested on>
IRAK4 (Homo sapiens (Human), UniProt Q9NWZ3)

>  <IC50>
100 to 1000 nM

$$$$
>  <Compound>
CNC(=O)c1ccc(Nc2nc(Nc3cc(C)ns3)nc3ccn(-c4cnn(C)c4)c23)cc1

>  <Tested on>
IRAK4 (Homo sapiens (Human), UniProt Q9NWZ3)

>  <IC50>
100 to 1000 nM

$$$$

Item `Cc1cc(Nc2nc(OC3CCCC3)c3c(ccn3-c3cnn(C)c3)n2)sn1` ; assay system IRAK4 (Homo sapiens (Human), UniProt Q9NWZ3); IC50 reported as 100 to 1000 nM

---

Here we gather IC50 data for IRAK4 (Homo sapiens (Human), UniProt Q9NWZ3) reported by several publications.

Just so you know, measured IC50 for `CN1CCN(C(=O)CCCc2cn(-c3ccccc3)c(NC(=O)c3cccc(-c4ccc5scnc5c4)c3)n2)CC1` came out at > 100 nM

Just so you know, measured IC50 for C=CC(=O)N[C@@H]1CCCC(C(=O)Nc2ccc(NC(=O)c3cccc(-c4ccn[nH]4)n3)cc2F)C1 (some centres unmarked) came out at > 10000 nM

Just so you know, measured IC50 for N#Cc1ccc2ncnc(N[C@H]3CC[C@@H](N4CCN(S(=O)(=O)CCOCCOc5ccc6c(c5)C(=O)N(C5CCC(=O)NC5=O)C6=O)CC4)CC3)c2c1 (some centres unmarked) came out at ≥ 1000 nM

Just so you know, measured IC50 for `CC(C)Nc1c(C(=O)NCCN2CCS(=O)(=O)CC2)nnc2ccc(-c3cn[nH]c3)cc12` came out at 2.7 nM

Just so you know, measured IC50 for `CNC(=O)Cc1cn(-c2ccccc2)c(NC(=O)c2cccc(-c3ccc4[nH]ncc4c3)c2)n1` came out at 50 to 100 nM

Just so you know, measured IC50 for `CC(C)(O)[C@H](F)CNC(=O)c1cnc(-c2ccc3cc(C#N)cnn23)cc1N[C@H]1CC[C@H](c2cccnc2)CC1` came out at < 1 nM

Just so you know, measured IC50 for `CC(C)Nc1cc(-c2cnn3cc(F)c(N)nc23)ncc1C(=O)NC[C@@H](F)C(C)(C)O` came out at 3 nM

Just so you know, measured IC50 for `CC(C)(O)[C@H](F)CNC(=O)c1cnc(-c2cnn3cc(Cl)cnc23)cc1Nc1cnn(CC(F)(F)F)c1` came out at 3 nM

Just so you know, measured IC50 for `CCC[C@H](N)c1cccc(-c2cc(OC(F)(F)F)c3cnn(-c4cccc(CO)n4)c3c2)n1` came out at < 100 nM

Just so you know, measured IC50 for `Cc1cc(Nc2nc(NCCN3CCOCC3)c3c(ccn3-c3cnn(C)c3)n2)sn1` came out at 100 to 1000 nM

Just so you know, measured IC50 for CCC(N)c1cccc(-c2ccc3cnn(-c4cccc(C)n4)c3c2)n1 (centres unmarked) came out at < 100 nM

---

Here we gather pIC50 data for IRAK4 (Homo sapiens (Human), UniProt Q9NWZ3) reported by several publications.
pIC50: −log10 of the molar value.

See these solved cases before continuing.
>  <Compound structure>
Cn1cc(-c2cccc(-c3ncc(-c4cnn(C)c4)c(NCCCN4CCOC4=O)n3)c2)cn1

>  <Tested on>
IRAK4 (Homo sapiens (Human), UniProt Q9NWZ3)

>  <Reported result>
6.00 to 7.00

$$$$
>  <Compound structure>
Cc1cc(Nc2nc(N[C@H]3CC[C@](C)(O)CC3)c3c(ccn3-c3cnn(C)c3)n2)sn1

>  <Tested on>
IRAK4 (Homo sapiens (Human), UniProt Q9NWZ3)

>  <Reported result>
6.00 to 7.00

$$$$
>  <Compound structure>
Cc1cc(Nc2nc(OC3CCC3)c3c(ccn3-c3cnn(C)c3)n2)sn1

>  <Tested on>
IRAK4 (Homo sapiens (Human), UniProt Q9NWZ3)

>  <Reported result>
6.00 to 7.00

$$$$

Just so you know, measured pIC50 for `O=C(Nc1nc(CCCCCCNc2ccccc2)cn1-c1ccccc1)c1cccc(-c2cn[nH]c2)c1` came out at 7.00 to 7.30

Just so you know, measured pIC50 for `CN[C@H]1CC[C@H](Oc2ncnc3sc4c(c23)[C@@H](CC(N)=O)CC4)CC1` came out at > 5.30

Just so you know, measured pIC50 for `C[C@H](N)c1cccc(-c2cc(-c3ncccn3)c3cnn(-c4cccc(CO)n4)c3c2)n1` came out at > 7.00

---

pIC50: −log10 of the molar value.
Here we gather pIC50 data for IRAK4 (Homo sapiens (Human), UniProt Q9NWZ3) reported by several publications.

>  <Compound>
CC1(C)OC(=O)c2ccc(Nc3ncc(-c4nc(CN5CCOCC5)no4)c(N[C@H](CO)c4ccccc4)n3)cc21

>  <Tested on>
IRAK4 (Homo sapiens (Human), UniProt Q9NWZ3)

>  <pIC50>
6.00 to 6.60

$$$$
>  <Compound>
Cn1cc(-c2cccc(-c3ncc(-c4cnn(C)c4)c(NC4CCN(S(C)(=O)=O)CC4)n3)c2)cn1

>  <Tested on>
IRAK4 (Homo sapiens (Human), UniProt Q9NWZ3)

>  <pIC50>
> 7.00

$$$$
>  <Compound>
Cn1cc(-c2cccc(-c3ncc(-c4cnn(C)c4)c(NCCCCO)n3)c2)cn1

>  <Tested on>
IRAK4 (Homo sapiens (Human), UniProt Q9NWZ3)

>  <pIC50>
> 7.00

$$$$
>  <Compound>
CN(C)[C@H]1CC[C@H](Nc2ncnc3sc4cccc(CO)c4c23)CC1

>  <Tested on>
IRAK4 (Homo sapiens (Human), UniProt Q9NWZ3)

>  <pIC50>
≤ 5.00

$$$$
>  <Compound>
CNC(C)c1cccc(-c2ccc3cnn(-c4cccc(C)n4)c3c2)n1 (stereo not drawn)

>  <Tested on>
IRAK4 (Homo sapiens (Human), UniProt Q9NWZ3)

>  <pIC50>
6.00 to 7.00

$$$$

Okay, next one:
Item `NC(=O)[C@H]1CCc2sc3ncnc(N[C@H]4CC[C@H](N5CCOCC5)CC4)c3c2C1` ; assay system IRAK4 (Homo sapiens (Human), UniProt Q9NWZ3); pIC50 reported as > 5.30

---

Here we gather IC50 data for IRAK4 (Homo sapiens (Human), UniProt Q9NWZ3) reported by several publications.

See these solved cases before continuing.
>  <Compound>
CCOc1cc(-c2cccc([C@@H](N)CCC(F)(F)F)n2)cc2c1cnn2-c1cccc(CO)n1

>  <Measured quantity>
IC50

>  <Reported result>
< 100 nM

$$$$
>  <Compound>
CC(C)(O)[C@H](F)Cn1cc(-c2cnc(-c3ccc4cc(C#N)cnn34)cc2NC23CCC(N4CCOC4=O)(CC2)CC3)nn1

>  <Measured quantity>
IC50

>  <Reported result>
< 1 nM

$$$$
>  <Compound>
Cn1cc(-c2cccc(C(=O)Nc3nc(CCCCC(=O)NC4CCOCC4)cn3-c3ccccc3)c2)cn1

>  <Measured quantity>
IC50

>  <Reported result>
< 50 nM

$$$$

Just so you know, measured IC50 for `Cn1cc(Nc2nc(N[C@H]3CC[C@@H](N)CC3)c3sccc3n2)cn1` came out at 100 to 1000 nM

Just so you know, measured IC50 for `Cc1cc(Nc2nc(NCCCCO)c3c(ccn3-c3cnn(C)c3)n2)sn1` came out at ≤ 100 nM

Just so you know, measured IC50 for CN(C)[C@H]1CC[C@H](Nc2ncnc3sc4c(c23)C(C(=O)NCc2cccnc2)CC4)CC1 (some centres unmarked) came out at 20000 to 50000 nM

Just so you know, measured IC50 for O=C1CCC(N2C(=O)c3ccc(OCCOCCOCCOCCOC[C@H]4CC[C@@H](n5c(NC(=O)c6cccc(C(F)(F)F)c6)nc6cc(F)ccc65)CC4)cc3C2=O)C(=O)N1 (some centres unmarked) came out at ≥ 1000 nM

Just so you know, measured IC50 for `CC(C)(O)[C@H](F)CNC(=O)c1cnc(-c2cnn3cc(Cl)cnc23)cc1Nc1cnn(CC2CC2)c1` came out at 1 nM

Just so you know, measured IC50 for `CCCc1cn(-c2cnc(-n3cnc4cc(C#N)cnc43)cc2NC(C)C)nn1` came out at 15 nM

Just so you know, measured IC50 for `c1cc(-c2ccc3c(c2)[nH]c2ncnc(N[C@H]4CC[C@H](N5CCOCC5)CC4)c23)ccn1` came out at 1360 nM
